Tested on: KM-20L2
Experiment Notes: NCI tumour cell line growth inhibition, 48 h
Active and inactive are the calls of the source. Cut-off read from the data, not from the text of the source: active = GI50 up to about 1.1 µM and inactive = higher.
Items are presented alongside their recorded GI50.
Measured Parameter: GI50

INSERT INTO measurements (molecule, observed_result) VALUES
  ('O=c1[nH]nc2ccccc2c1Cl', '14.6 µM (inactive)'),
  ('OCCCCn1cnc2c(O)ncnc21', '> 100 µM (inactive)'),
  ('Nc1ccc2c(c1)Oc1c(F)c(F)cc3c(=O)c(C(=O)O)cn-2c13', '53.6 µM (inactive)'),
  ('COC(=O)CCC(=O)N1CC1C (centres undefined)', '> 100 µM (inactive)');

* * *

Test system: OVCAR-4
Experiment Notes: NCI tumour cell line growth inhibition, 48 h
Calls of active or inactive are those of the source. No stated cut-off is given here; in the data, active = GI50 up to about 1.1 µM and inactive = higher.
Measured Parameter: GI50

INSERT INTO assay_data (compound, observed_result) VALUES
  ('C1COC2SC3=C(SC(=C4SC5=C(SCCS5)S4)S3)SC2O1 (stereo unspecified)', '31.3 µM (inactive)'),
  ('COC(=O)c1ccccc1NC(=O)C(=O)NNC(=O)c1ccncc1', '> 100 µM (inactive)'),
  ('CC(=O)NNc1nc(C)c(C(/C=C/c2ccc(Cl)cc2)=N/NC(=S)NN)s1', '> 100 µM (inactive)'),
  ('CC1(C)[C@@H]2C[C@H]1C(Cc1ccccc1C[C@H]1c3cc(-c4ccccn4)ncc3[C@H]3C[C@@H]1C3(C)C)c1cc(-c3ccccn3)ncc12 (stereo partly specified)', '0.716 µM (active)'),
  ('NC(Cc1ccc(O)cn1)C(=O)NC(C(=O)O)c1ccccc1 (stereo unspecified)', '> 100 µM (inactive)'),
  ('Cc1nc(Nc2ccccc2Cl)sc1C(=O)CC(=O)C(=O)Nc1c(Cl)cccc1Cl', '49.1 µM (inactive)'),
  ('COC(=O)N1C2C(C[C@@]1(C)C(=O)OC)c1ccccc1N2S(=O)(=O)c1ccccc1 (stereo partly specified)', '> 100 µM (inactive)'),
  ('COC(=O)/C(=N\NC(N)=S)C(C(=O)OC)C(=O)C(=O)Nc1ccc(C)cc1 (stereo unspecified)', '> 100 µM (inactive)'),
  ('COc1cc2nc3c(=C(C#N)C#N)c4ccccc4n3c(=O)c2cc1OC', '> 100 µM (inactive)'),
  ('CCCN(CCCc1ccccc1)CCc1ccc2[nH]c(=S)[nH]c2c1', '76.4 µM (inactive)'),
  ('Nc1cc(S(=O)(=O)O)cc2cc(S(=O)(=O)O)c(/N=N/c3ccc(-c4ccc(/N=N/c5c(S(=O)(=O)O)cc6cc(S(=O)(=O)O)cc(N)c6c5O)cc4)cc3)c(O)c12', '> 100 µM (inactive)'),
  ('O=CCCn1[nH]c(=O)ccc1=O', '> 100 µM (inactive)'),
  ('CC(C)C1COC(c2cccc(C3=N[C@@H](C(C)C)CO3)n2)=N1 (stereo partly specified)', '> 100 µM (inactive)'),
  ('Oc1ccccc1/C=N/Nc1nc(N/N=C/c2ccccc2O)nc(N/N=C/c2ccccc2O)n1', '> 100 µM (inactive)'),
  ('O=C1CCN(CCC(F)(F)C(F)(F)C(F)(F)C(F)(F)F)C(=S)N1', '> 100 µM (inactive)'),
  ('CC(C)c1ccc2c(c1)CCC1C(C)(C)[C@@H](O)CC[C@]21C (stereo partly specified)', '56.8 µM (inactive)');

* * *

System: UO-31
Experiment Notes: NCI tumour cell line growth inhibition, 48 h
Calls of active or inactive are those of the source. Rule as the data show it: active = GI50 up to about 1.1 µM and inactive = higher.
Items are presented alongside their recorded GI50.
Measured Parameter: GI50

INSERT INTO measurements (compound, target_system, observed_result) VALUES
  ('O=C(O)Cn1ccc(=O)c2ccc([N+](=O)[O-])cc21', 'UO-31', '> 100 µM (inactive)'),
  ('Nc1nc(=O)n(C2OC(CO)C(O)C2O)c2ncc(-c3ccc(-c4ccccc4)cc3)nc12 (centres undefined)', 'UO-31', '> 100 µM (inactive)'),
  ('CCOC(=O)CCC(NC(=O)c1ccc(Nc2nc3cc(C(F)(F)F)ccc3nc2-c2ccccc2)cc1)C(=O)OCC (centres undefined)', 'UO-31', '14.6 µM (inactive)'),
  ('Cc1nc(N)c(N2CCN(C#N)CC2)c(O)n1', 'UO-31', '> 100 µM (inactive)'),
  ('CC(=O)C1=CSC2[C@H](NC(=O)Cc3ccccc3)C(=O)N2C1C(=O)OC(c1ccccc1)c1ccccc1 (some centres undefined)', 'UO-31', '> 100 µM (inactive)'),
  ('COc1ccc(N[S+]([O-])c2ccc(-c3ccccc3)cc2)cc1 (centres undefined)', 'UO-31', '> 100 µM (inactive)'),
  ('C=C1CC(Cn2ccc(=O)[nH]c2=O)(c2ccc(OC)cc2)OC1=O (centres undefined)', 'UO-31', '17.2 µM (inactive)'),
  ('CC1OC(O[C@H]2CC[C@]3(C)[C@H]4CC=C5[C@@H]6[C@@H](C)[C@H](C)CC[C@]6(C(=O)OC6OC(CO)C(O)C(O)C6O)CC[C@@]5(C(=O)O)[C@]4(C)CC[C@H]3C2(C)C)C(O)C(O)C1O (some centres undefined)', 'UO-31', '> 100 µM (inactive)'),
  ('COc1ccc2c(c1)CC[C@@H]1[C@@H]2CC[C@]2(C)C(=O)/C(=C/c3ccc(N(C)C)cc3)C[C@@H]12', 'UO-31', '98.9 µM (inactive)'),
  ('[N-]=[N+]=NC(c1cn(C2CC(O)C(CO)O2)c(=O)[nH]c1=O)C(Cl)Br (centres undefined)', 'UO-31', '> 100 µM (inactive)'),
  ('O=C(O)c1cc(O)c2c(c1)Cc1cccc(O)c1C2=O', 'UO-31', '17.4 µM (inactive)'),
  ('CC(Cc1ccc(O)c(O)c1)C(C)Cc1ccc(O)c(O)c1 (centres undefined) [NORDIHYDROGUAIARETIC ACID]', 'UO-31', '9.55 µM (inactive)'),
  ('C1CSCCCSCCCSCCCSCCCSC1', 'UO-31', '26.8 µM (inactive)'),
  ('Nc1cc2[nH]c(=O)c3cc(Cl)ccc3c2cc1Cl', 'UO-31', '10.2 µM (inactive)'),
  ('COC(=O)/C(=N\NC(N)=S)C(C(=O)OC)C(=O)C(=O)Nc1ccc(C)cc1 (centres undefined)', 'UO-31', '> 100 µM (inactive)'),
  ('CC(=O)Oc1ccn2nc(C)c(Br)c2c1Br', 'UO-31', '4.6 µM (inactive)'),
  ('O=[N+]([O-])c1ccc(C2=Nc3ccccc3SC(c3ccccc3)C2)cc1 (centres undefined)', 'UO-31', '12.9 µM (inactive)'),
  ('CCOC(=O)NC(=O)c1cn(CC(=O)NCC(=O)NCC(=O)N2CCN(CCn3c(C)nc(C(N)=O)c3N)CC2)c(=O)[nH]c1=O', 'UO-31', '> 100 µM (inactive)'),
  ('CC1=NN(C(=O)c2ccc(Cl)cc2)C(=O)/C1=C/c1ccc(Cl)cc1', 'UO-31', '> 100 µM (inactive)'),
  ('Cc1c(Cl)cccc1NC(=O)C(=O)C1C(=O)NC(=O)NC1=O', 'UO-31', '> 100 µM (inactive)'),
  ('c1ccc(/C(=N/Nc2ccccn2)c2cccnn2)cc1', 'UO-31', '0.885 µM (active)'),
  ('N#Cc1ccccc1NC(=O)/C(=N\NC(=O)c1ccncc1)C(c1cnc2ccc([N+](=O)[O-])cc2n1)[N+](=O)[O-] (centres undefined)', 'UO-31', '32.1 µM (inactive)'),
  ('CC(CCC(=O)O)C(=O)O (centres undefined)', 'UO-31', '> 100 µM (inactive)'),
  ('Cn1c2c(c3ccccc31)CCN(CCCN1CCN(c3cccc(Cl)c3)CC1)C2=O', 'UO-31', '11 µM (inactive)'),
  ('O=C1C[C@@H]2CCCC[C@@H]2C12SCCS2', 'UO-31', '32.1 µM (inactive)'),
  ('Cc1ccc(N2C[N+](c3ccccc3)=NC(c3ccccc3)=N2)cc1', 'UO-31', '35.9 µM (inactive)'),
  ('O=C1CCN2c3ccccc3[C@H]3Cc4cccc(c4[C@@H]2C3)CCO1', 'UO-31', '22.9 µM (inactive)'),
  ('ClCc1nc2ccccc2[nH]1', 'UO-31', '> 100 µM (inactive)'),
  ('CS/C(C)=N/OC(=O)NCCCCNc1ccc(N=[N+]=[N-])cc1', 'UO-31', '20.7 µM (inactive)');

* * *

System: A549
Experiment Notes: NCI tumour cell line growth inhibition, 48 h
The source made the active and inactive calls. No stated cut-off is given here; in the data, active = GI50 up to about 1.1 µM and inactive = higher.
Measured Parameter: GI50

INSERT INTO measurements (compound, observed_result) VALUES
  ('COc1ccc(-c2cc(O)c3nc4ccccc4n3c2)cc1', '> 100 µM (inactive)'),
  ('COc1ccc(C(OCC2OC(n3cc(C)c(=O)[nH]c3=O)CC2n2cc(Cn3cc(I)c(=O)[nH]c3=O)nn2)(c2ccccc2)c2ccccc2)cc1 (stereo unspecified)', '> 100 µM (inactive)'),
  ('O=C1C=CC(=O)c2c1ccc1c3ccccc3n(Cc3ccccc3)c21', '> 100 µM (inactive)'),
  ('CC1(C)Oc2ccc3c(=O)cc(-c4ccccc4)oc3c2C1C(=O)O (stereo unspecified)', '> 100 µM (inactive)'),
  ('CN(C)C(=O)C1CCC(=C2C(=O)OC(C)(C)OC2=O)N1C (stereo unspecified)', '> 100 µM (inactive)'),
  ('COC(=O)C12C3C4C1C1C2C3C41C(=O)NC(C)(C)CC(=O)O (stereo unspecified)', '> 100 µM (inactive)'),
  ('CC(C)(C)OC(=O)N(CCCCNC(=O)C(F)(F)F)CCCNC(=O)C(F)(F)F', '> 100 µM (inactive)'),
  ('CC(=O)/N=C1/N(/C=C2\C(=O)Oc3ccccc3C2=O)C(=O)/C(=C/c2ccc(OC(C)=O)cc2)N1C', '> 100 µM (inactive)'),
  ('COc1cc2c(cc1O)NC(=S)[C@@H]1CCCN1C2=O', '> 100 µM (inactive)'),
  ('CCOC(=O)NC(=O)c1cn(CCN2CCN(C(=O)CCCCCCCCCCNc3ncnc4c3ncn4C3OC(CO)C(O)C3O)CC2)c(=O)[nH]c1=O (stereo unspecified)', '> 100 µM (inactive)'),
  ('O=c1[nH]c(-c2ccccc2)nc2cc([N+](=O)[O-])c(/C(Cl)=C/c3ccccc3)cc12', '23.2 µM (inactive)'),
  ('COCCNC(=O)C1C(=O)N(CCOC)C(=O)/C1=N/N (stereo unspecified)', '> 100 µM (inactive)'),
  ('CCOC(=O)CCC(NC(=O)c1ccc(Nc2nc3cc(C(F)(F)F)ccc3nc2-c2ccccc2)cc1)C(=O)OCC (stereo unspecified)', '> 100 µM (inactive)'),
  ('NC(Cc1ccccc1)C(=O)OCN1C(=O)C2C3C=CC(C2C1=O)C1C2C(=O)N(COC(=O)C(N)Cc4ccccc4)C(=O)C2C31 (stereo unspecified)', '23.2 µM (inactive)'),
  ('O=c1c2cc(I)ccc2nc(SCc2nnco2)n1Cc1ccccc1', '> 100 µM (inactive)'),
  ('O=[N+]([O-])c1cccc2nc3ccccc3c(NCCCN3CCOCC3)c12', '< 0.0121 µM (active)'),
  ('CSCC(CO)NC(=O)/C=C/c1c(C)[nH]c(=O)[nH]c1=O (stereo unspecified)', '> 875 µM (inactive)'),
  ('NC1CC(=O)c2csc(Cl)c21 (stereo unspecified)', '17.9 µM (inactive)'),
  ('O=C1CCN(CCC(F)(F)C(F)(F)C(F)(F)C(F)(F)F)C(=S)N1', '> 100 µM (inactive)'),
  ('NC(=O)n1ncc(Cl)c(Cl)c1=O', '> 100 µM (inactive)'),
  ('COC(=O)N1C2C(C[C@@]1(C)C(=O)OC)c1ccccc1N2S(=O)(=O)c1ccccc1 (stereo partly specified)', '> 100 µM (inactive)'),
  ('O=C1C2C=CC1C1C(=O)OC(=O)C21 (stereo unspecified)', '> 100 µM (inactive)'),
  ('CSc1ccc(NC(=O)C2c3[nH]c4ccccc4c3C3CCC(C(C)(C)C)CC3C2C(=O)O)cc1 (stereo unspecified)', '15.2 µM (inactive)'),
  ('COC(=O)C1=CC2C(=O)c3ccccc3C1(c1ccccc1)N2C1CCCCC1 (stereo unspecified)', '20 µM (inactive)'),
  ('O=[N+]([O-])c1ccc(C2=Nc3ccccc3SC(c3ccccc3)C2)cc1 (stereo unspecified)', '20.4 µM (inactive)'),
  ('C=C(C)[C@@H]1CC=C(CO)CC1', '126 µM (inactive)'),
  ('COc1ccc2c(c1)CC[C@@H]1[C@@H]2CC[C@]2(C)C(=O)/C(=C/c3ccc(N(C)C)cc3)C[C@@H]12', '41.9 µM (inactive)'),
  ('Nc1ncc2c(n1)-c1ccccc1OC2N1CCOCC1 (stereo unspecified)', '> 100 µM (inactive)'),
  ('CN(C)c1ccc(/C=C2\N=C(c3ccccc3)N(c3ccc4c(c3)Sc3cc(N5C(=O)/C(=C/c6ccc(N(C)C)cc6)N=C5c5ccccc5)ccc3N4)C2=O)cc1', '22.1 µM (inactive)'),
  ('CCO/N=C\c1ccc2oc(-c3ccccc3)cc(=O)c2c1', '0.417 µM (active)'),
  ('Cc1cc(Nc2ccc(S(=O)(=O)O)cc2)c2ccccc2n1', '> 100 µM (inactive)'),
  ('CCSc1c2ccccc2c(-c2nc(F)nc(F)n2)n1CCc1ccccc1', '> 100 µM (inactive)'),
  ('CC(=O)O[C@H]1C(=O)[C@@]2(C)[C@H]([C@H](OC(=O)c3ccccc3)[C@]3(O)C[C@H](OC(=O)[C@H](O)[C@@H](NC(=O)c4ccccc4)c4ccc5ccccc5c4)C(C)=C1C3(C)C)[C@]1(OC(C)=O)CO[C@@H]1C[C@@H]2O', '0.0998 µM (active)'),
  ('CCCO/S(=N\S(=O)(=O)c1ccccc1)c1ccccc1[N+](=O)[O-] (stereo unspecified)', '> 100 µM (inactive)'),
  ('COc1cc2oc3c(c(=O)c2c(O)c1/C=C/C(C)C)CCC(C)(C)Oc1cc(O)ccc1-3', '12 µM (inactive)'),
  ('CCN1C(=O)C(=Cc2ccc(-c3ccccc3)cc2)C(=O)N(CC)C1=S', '> 100 µM (inactive)');
